species: Mus musculus; assay: In vitro activity for the ability to inhibit the uptake of Norepinephrine into mouse cortical slices.; assay type: functional; conditions: read-out: ED50 (the source's name)
REPORTED_ENDPOINT: pEC50
One number for each entry, as −log10 of the molar value.

Identify pEC50 associated with the compound CN(C)CCC=C1c2ccccc2CCc2ccccc21 [AMITRIPTYLINE]
5.27

---

test system: Mus musculus; assay: Ability to inhibit the uptake of Serotonin into mouse cortical slices 1 hour after intraperitoneal injection ex vivo; type: functional; settings: ip
Answer each item with its documented ED50.

Example entries begin here.
INSERT INTO results (compound_structure_string, observed) VALUES
  ('CN(C)CC/C=C1\c2cc(Cl)ccc2Sc2cccc(N)c21', '> 99 µmol/kg'),
  ('CN(C)CCC=C1c2ccccc2CCc2ccccc21', '> 144 µmol/kg'),
  ('CN(C)CCCN1c2ccccc2CCc2ccccc21', '126 µmol/kg');

Identify ED50 associated with the compound CNCCCN1c2ccccc2CCc2ccccc21
> 132 µmol/kg
